system: Mycobacterium tuberculosis; test: Antimycobacterial activity against Mycobacterium tuberculosis H37Rv after 28 days; type: functional; settings: 672 h
recorded metric: log10 MIC (log10 of the value in µg/mL)
Hello, just confirming the data are log10 of MIC with units of µg/mL.

Known results for compounds:
Query: What measured log10 MIC is associated with `COc1ccccc1NS(=O)(=O)c1ccc([N+](=O)[O-])cc1[N+](=O)[O-]` on Mycobacterium tuberculosis?
Reply: 0.50

Query: What measured log10 MIC is associated with `C[C@@H](NS(=O)(=O)c1ccc([N+](=O)[O-])cc1[N+](=O)[O-])c1ccccc1` on Mycobacterium tuberculosis?
Reply: 0.19

Query: What measured log10 MIC is associated with `CN(c1ccccc1)S(=O)(=O)c1ccc([N+](=O)[O-])cc1[N+](=O)[O-]` on Mycobacterium tuberculosis?
Reply: -0.11

Query: What measured log10 MIC is associated with `CN(CCc1ccccc1)S(=O)(=O)c1ccc([N+](=O)[O-])cc1[N+](=O)[O-]` on Mycobacterium tuberculosis?
Reply: -0.11

Query: What measured log10 MIC is associated with `O=[N+]([O-])c1ccc(S(=O)(=O)Nc2ccc(F)cc2)c([N+](=O)[O-])c1` on Mycobacterium tuberculosis?
Reply: 0.80

Query: What measured log10 MIC is associated with NC(=O)c1cnccn1 [PYRAZINAMIDE] on Mycobacterium tuberculosis?
Reply: 0.80

Query: What measured log10 MIC is associated with `O=[N+]([O-])c1ccc(S(=O)(=O)NCc2ccc(Cl)cc2)c([N+](=O)[O-])c1` on Mycobacterium tuberculosis?
Reply: -0.40

Next:
Query: What measured log10 MIC is associated with `O=[N+]([O-])c1ccc(S(=O)(=O)NCCc2ccccc2)c([N+](=O)[O-])c1` on Mycobacterium tuberculosis?
Reply: -0.40

====

tested on: Mycobacterium tuberculosis; assay: Antimycobacterial activity against Mycobacterium tuberculosis H37Rv after 28 days; format: functional; conditions: 672 h
# maps each entry to its MIC

Query: What measured MIC is associated with `COc1ccc(CNS(=O)(=O)c2ccc([N+](=O)[O-])cc2[N+](=O)[O-])cc1` on Mycobacterium tuberculosis?
Reply: 0.25 µg/mL

Query: What measured MIC is associated with `O=[N+]([O-])c1ccc(S(=O)(=O)NCc2ccc(C(F)(F)F)cc2)c([N+](=O)[O-])c1` on Mycobacterium tuberculosis?
Reply: 0.4 µg/mL

Query: What measured MIC is associated with `O=[N+]([O-])c1ccc(S(=O)(=O)NCc2ccccc2C(F)(F)F)c([N+](=O)[O-])c1` on Mycobacterium tuberculosis?
Reply: 1.56 µg/mL

Query: What measured MIC is associated with CC[C@@H](CO)NCCN[C@@H](CC)CO [ETHAMBUTOL] on Mycobacterium tuberculosis?
Reply: 1.56 µg/mL

Query: What measured MIC is associated with `N#Cc1ccc(NS(=O)(=O)c2ccc([N+](=O)[O-])cc2[N+](=O)[O-])cc1` on Mycobacterium tuberculosis?
Reply: > 50 µg/mL

Query: What measured MIC is associated with NNC(=O)c1ccncc1 [ISONIAZID] on Mycobacterium tuberculosis?
Reply: 0.05 µg/mL

Query: What measured MIC is associated with `C[C@H](NS(=O)(=O)c1ccc([N+](=O)[O-])cc1[N+](=O)[O-])c1ccccc1` on Mycobacterium tuberculosis?
Reply: 1.56 µg/mL

Query: What measured MIC is associated with `O=[N+]([O-])c1ccc(S(=O)(=O)N(CCc2ccccc2)Cc2ccccc2)c([N+](=O)[O-])c1` on Mycobacterium tuberculosis?
Reply: 3.13 µg/mL

Next:
Query: What measured MIC is associated with `O=[N+]([O-])c1ccc(S(=O)(=O)N(Cc2ccccc2)c2ccccc2)c([N+](=O)[O-])c1` on Mycobacterium tuberculosis?
Reply: 1.56 µg/mL
